target: T1, human toll-like receptor 4, His-tagged (human, UniProt O00206 24-631)
T1 construct: toll-like receptor 4, human; called the extracellular domain of TLR4 in the results; described as a 100 kDa protein with isoelectric point 5.88; Coupled covalently to the carboxylate cuvette by EDC/NHS 'via the N-terminus of the poly-His tail'; also called TLR4; TLR4-His; source: pEF-BOS TLR4 plasmid, transfected in HCT-116 cell line (author contributions)
T1 sequence (O00206 24-631): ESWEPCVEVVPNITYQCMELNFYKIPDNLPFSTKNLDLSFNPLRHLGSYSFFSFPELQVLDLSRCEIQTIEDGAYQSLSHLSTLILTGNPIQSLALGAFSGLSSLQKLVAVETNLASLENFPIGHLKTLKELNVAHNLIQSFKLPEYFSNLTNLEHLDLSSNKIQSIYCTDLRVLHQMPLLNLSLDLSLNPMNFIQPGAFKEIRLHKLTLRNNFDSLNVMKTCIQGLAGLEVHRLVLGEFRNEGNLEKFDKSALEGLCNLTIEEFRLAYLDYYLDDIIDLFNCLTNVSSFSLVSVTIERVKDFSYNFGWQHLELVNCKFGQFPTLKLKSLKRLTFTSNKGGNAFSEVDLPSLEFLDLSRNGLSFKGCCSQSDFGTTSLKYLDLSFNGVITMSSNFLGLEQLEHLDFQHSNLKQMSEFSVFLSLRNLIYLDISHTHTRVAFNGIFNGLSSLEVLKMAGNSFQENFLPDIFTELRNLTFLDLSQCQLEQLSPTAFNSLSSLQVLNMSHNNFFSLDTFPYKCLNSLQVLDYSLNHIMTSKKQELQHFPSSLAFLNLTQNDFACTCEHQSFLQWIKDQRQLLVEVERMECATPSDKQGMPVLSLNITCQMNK
assay-overview: SPR; IAsys plus evanescent wave/resonant mirror biosensor (the paper calls it surface plasmon resonance); TLR4-His covalently immobilised on carboxylate cuvette; 37 °C; PBS pH 7.4 with 140 mM NaCl; mono-exponential fits
measurement-conditions: both partners purified
observation-type: Kd (nM)
Lab book: enter the figure in nM, no units written.

q: Given the binder RSGNVGESGLI (stretch of wheat ATI CM3; also called straight peptide; StrP; source: synthetic peptide) [RSGNVGESGLI oligopeptide derived from wheat ATI CM3] , what is its reported Kd?
a: 1400
